system: ACHN; experiment: NCI tumour cell line growth inhibition, 48 h
The source made the active and inactive calls. No stated cut-off is given here; in the data, active = GI50 up to about 1.1 µM and inactive = higher.
Possible outcomes: active, inactive

- COMPOUND: "Nc1c(S(=O)(=O)O)cc(Nc2cccc(S(N)(=O)=O)c2)c2c1C(=O)c1ccccc1C2=O"
  ASSIGNED CLASS: "inactive"
- COMPOUND: "Cc1cccc(C(C)(C)C)c1NC(=O)C(=O)Cc1nc2ccccc2s1"
  ASSIGNED CLASS: "inactive"
- COMPOUND: "COc1ccccc1C1=C2C(=O)N(C)C(c3ccccc3OC)=C2C(=O)N1C"
  ASSIGNED CLASS: "inactive"
- COMPOUND: "CC1(C)c2ccccc2C(=O)C12CCC(=O)CC2"
  ASSIGNED CLASS: "inactive"
- COMPOUND: "O=C(CCc1ccccc1CO)NCCc1ccccc1"
  ASSIGNED CLASS: "inactive"
- COMPOUND: "O=c1[nH]c2nc3ccccc3c(=O)n2/c1=C/c1cccs1"
  ASSIGNED CLASS: "inactive"
- COMPOUND: "Cc1cc(N(CCC#N)CCC#N)ccc1/C=N\\c1ccc(C(=O)NN2C(=O)/C(=C/c3ccc(N(CCC#N)CCC#N)cc3)N=C2c2cc([N+](=O)[O-])ccc2Cl)cc1"
  ASSIGNED CLASS: "inactive"
- COMPOUND: "CNc1cc2oc(=O)cc(C)c2cc1C"
  ASSIGNED CLASS: "inactive"
- COMPOUND: "C1=C(c2ccccc2)Nc2nnnn2C1c1ccccc1 (configuration not stated)"
  ASSIGNED CLASS: "inactive"
- COMPOUND: "COC(=O)C1CC(C(=O)OC)c2nc3cc([N+](=O)[O-])ccc3nc21 (configuration not stated)"
  ASSIGNED CLASS: "inactive"
- COMPOUND: "CC(C)(C)C1CCC2c3c([nH]c4ccccc34)C3C(=O)N(c4ccc(Br)cc4)C(=O)C3C2C1 (configuration not stated)"
  ASSIGNED CLASS: "inactive"
- COMPOUND: "CCOC(=O)c1nc2ccccc2nc1Oc1cc(OC)c(OC)c(OC)c1"
  ASSIGNED CLASS: "inactive"
- COMPOUND: "Cc1cc(O)c(O)c(Oc2cc(C)cc(O)c2O)c1"
  ASSIGNED CLASS: "inactive"
- COMPOUND: "O=Cc1cc(C(=O)OCc2ccccc2)n(S(=O)(=O)c2ccccc2)c1"
  ASSIGNED CLASS: "inactive"
- COMPOUND: "CC#C[P+](c1ccccc1)(c1ccccc1)c1ccccc1"
  ASSIGNED CLASS: "inactive"
- COMPOUND: "CCOP(=O)(/C=C\\n1cnc2c(=O)n(C(C)=O)c(N)nc21)OCC"
  ASSIGNED CLASS: "inactive"
- COMPOUND: "CCC1(COC(NC(=O)c2ccccc2)(C(F)(F)F)C(F)(F)F)COC1"
  ASSIGNED CLASS: "inactive"
- COMPOUND: "C=C1CC2OC(=O)C(=C)C2C(O)C2C(=C)CCC12 (configuration not stated)"
  ASSIGNED CLASS: "inactive"
- COMPOUND: "Brc1ccc2c(c1)C1(c3cc(Br)ccc3-2)c2cc(Br)ccc2-c2ccc(Br)cc21"
  ASSIGNED CLASS: "inactive"
- COMPOUND: "O=C(/C=C/c1ccc(Cl)cc1)c1nc2ccccc2[nH]1"
  ASSIGNED CLASS: "inactive"
- COMPOUND: "OC1c2ccccc2CC12Cc1ccccc1C2 (configuration not stated)"
  ASSIGNED CLASS: "inactive"
- COMPOUND: "Cc1cccc(/C=N/NC(=S)Nc2ccc(Cl)cc2)n1"
  ASSIGNED CLASS: "active"

====

system: A549; assay: NCI tumour cell line growth inhibition, 48 h
The source made the active and inactive calls. Rule as the data show it: active = GI50 up to about 1.1 µM and inactive = higher.
Classes used: T for active, F for inactive

- COMPOUND: "C=C(C)[C@H]1CC(=O)/C(C)=C\\CC/C(C)=C/CC[C@@]2(C)O[C@@H]2C1"
  ASSIGNED CLASS: "F"
- COMPOUND: "Cc1nc(C)c(C(=O)NNC(N)=S)cc1C(=O)NNC(N)=S"
  ASSIGNED CLASS: "F"
- COMPOUND: "Oc1ccc(NCc2cc(O)ccc2O)cc1"
  ASSIGNED CLASS: "F"
- COMPOUND: "CC(C)NC1CCCCC2c3cc(F)ccc3[C@]12O (stereo not given in full)"
  ASSIGNED CLASS: "F"
- COMPOUND: "O=C(Nc1ccc(Cl)cc1)c1cc(S(=O)(=O)Nc2n[nH]c(Nc3ccc4ccccc4c3)n2)c(SSc2cc(Cl)c(C(=O)Nc3ccc(Cl)cc3)cc2S(=O)(=O)Nc2n[nH]c(Nc3ccc4ccccc4c3)n2)cc1Cl"
  ASSIGNED CLASS: "F"
- COMPOUND: "OC1(c2ccccc2)c2ccccc2N=C2NCCN21 (stereo not given)"
  ASSIGNED CLASS: "F"
- COMPOUND: "CC1(C)CC2C(/C1=N/O)C1(C)CCCC2(C)C1O (stereo not given)"
  ASSIGNED CLASS: "F"
- COMPOUND: "CN(C)CCCSc1nc2ccccc2[nH]1"
  ASSIGNED CLASS: "F"
- COMPOUND: "O=c1c2ccccc2nc2n1CCc1c-2[nH]c2ccc(Br)cc12"
  ASSIGNED CLASS: "F"
- COMPOUND: "O=C(Nc1ccccc1C(=O)NC(=O)c1ccccc1NC(=O)c1ccccc1)c1ccccc1"
  ASSIGNED CLASS: "F"
- COMPOUND: "CCCCCCCCCC(=O)Oc1cccc2onc(C)c12"
  ASSIGNED CLASS: "F"
- COMPOUND: "CC(=O)O[C@H]1C[C@]2(O)[C@@H]3CC[C@@H]4C[C@@H](O)CC[C@]4(C)[C@H]3CC[C@]2(C)[C@H]1C1=CC(=O)OC1"
  ASSIGNED CLASS: "T"
- COMPOUND: "Cn1cnc([N+](=O)[O-])c1Sc1nc2cccnc2[nH]1"
  ASSIGNED CLASS: "F"
- COMPOUND: "COc1cc2c(cc1OC)-c1c(cnn1C1OC(COC(C)=O)C(OC(C)=O)C(OC(C)=O)C1OC(C)=O)CC2 (stereo not given)"
  ASSIGNED CLASS: "F"
- COMPOUND: "COC(=O)c1ccccc1/C=C1\\Cc2cc(C)c(C)cc2C1=O"
  ASSIGNED CLASS: "F"
- COMPOUND: "Cc1cc(N(CCC#N)CCC#N)ccc1/C=N\\c1ccc(C(=O)NN2C(=O)/C(=C/c3ccc(N(CCC#N)CCC#N)cc3)N=C2c2cc([N+](=O)[O-])ccc2Cl)cc1"
  ASSIGNED CLASS: "F"
- COMPOUND: "CN(C)N1C(=O)c2ccccc2NC1c1ccccc1 (stereo not given)"
  ASSIGNED CLASS: "F"
- COMPOUND: "O=C(O)Cc1c(-c2ccc([N+](=O)[O-])cc2)c(=O)oc2cc(O)ccc12"
  ASSIGNED CLASS: "F"
- COMPOUND: "CCOn1c(C2(CC3CCN(C(=O)c4ccccc4)CC3)OCCO2)cc2ccccc21"
  ASSIGNED CLASS: "F"
- COMPOUND: "Cc1ccc2oc(=O)c(C(=O)Nc3nc(C45CC6CC(CC(C6)C4)C5)cs3)cc2c1"
  ASSIGNED CLASS: "F"

====

tested on: MDA-MB-231; experiment: NCI tumour cell line growth inhibition, 48 h
Active and inactive are the calls of the source. No stated cut-off is given here; in the data, active = GI50 up to about 1.1 µM and inactive = higher.
Known GI50 of a selection of compounds

- COMPOUND: "CCOC(=O)c1nc2ccc(C(F)(F)F)cc2nc1NCc1ccc(OC)cc1"
  TARGET ENTITY: "MDA-MB-231"
  GI50: "> 100 µM (inactive)"
- COMPOUND: "Cc1nn(C(=O)Cc2ccccc2)c2c1C(c1ccc(/C=C/c3ccccc3)cc1)SC(=N)N2 (stereo not given)"
  TARGET ENTITY: "MDA-MB-231"
  GI50: "> 100 µM (inactive)"
- COMPOUND: "Nc1nc(NCC2(CO)CC2)cc(=O)[nH]1"
  TARGET ENTITY: "MDA-MB-231"
  GI50: "> 100 µM (inactive)"
- COMPOUND: "CC(=O)N(C(C)=O)n1c(-c2ccccc2)n[nH]c1=O"
  TARGET ENTITY: "MDA-MB-231"
  GI50: "> 100 µM (inactive)"
- COMPOUND: "COC(=O)c1onc(C2OC(C)(C)OC2C(O)COC(c2ccccc2)(c2ccccc2)c2ccccc2)c1C(=O)OC (stereo not given)"
  TARGET ENTITY: "MDA-MB-231"
  GI50: "71.8 µM (inactive)"

====

system: SK-MEL-28; assay: NCI tumour cell line growth inhibition, 48 h
Activity calls are given as the source filed them. Cut-off read from the data, not from the text of the source: active = GI50 up to about 1.1 µM and inactive = higher. Peptide text beside a SMILES is read from it. * marks the point of attachment. Boc = CC(C)(C)OC(=O)*
As shown below, each of these molecules has a reported GI50 value.
ENDPOINT: GI50

- MOLECULE: "CC(C)(C)NN=C1C(C)(C)C(=NNC(C)(C)C)C1(C)C"
  RESULT: "> 100 µM (inactive)"
- MOLECULE: "CCOc1cc(NC(C)=O)ccc1C(=O)NN1C(=O)C(Cl)C1c1ccco1 (centres undefined)"
  RESULT: "22.6 µM (inactive)"
- MOLECULE: "CSCCC(NC(=O)C(CC(C)C)NC(=O)CNC(=O)OC(C)(C)C)C(=O)N(C)C (stereo not drawn) (Boc-Gly-Leu-Met-NMe2; configuration not given here)"
  RESULT: "> 100 µM (inactive)"
- MOLECULE: "CCOC(=O)c1ccc(N[C@@H]2c3cc4c(cc3C(c3cc(OC)c(O)c(OC)c3)[C@H]3C(=O)OCC32)OCO4)cc1 (some centres undefined)"
  RESULT: "2.55 µM (inactive)"
- MOLECULE: "COc1cc(/C=C2\\NC(=O)C(Cc3cc(OC)c(OC)c(C)c3OC)N(C(C)=O)C2=O)c(OC)c(C)c1OC (centres undefined)"
  RESULT: "> 100 µM (inactive)"
- MOLECULE: "COc1ccc(C2C(C(=O)O)=C(COC(C)=O)Oc3cc4c(cc32)OCO4)cc1 (centres undefined)"
  RESULT: "> 100 µM (inactive)"
- MOLECULE: "COc1ccc(-c2nnc3n(Cc4ccccc4)c4ccccc4n3c2=O)cc1"
  RESULT: "36.4 µM (inactive)"
- MOLECULE: "CCSc1nc(N)c2c(-c3ccc(OC)c(OC)c3)c3c(nc2n1)CCCC3"
  RESULT: "> 100 µM (inactive)"
- MOLECULE: "O=[N+]([O-])/C(Cl)=C/C(=C1/Nc2ccccc2O1)[N+](=O)[O-]"
  RESULT: "19.5 µM (inactive)"
- MOLECULE: "CCN(CC)Cc1nc(C2CCC([N+](=O)[O-])O2)no1 (centres undefined)"
  RESULT: "20.3 µM (inactive)"
- MOLECULE: "CC1(C)O[C@@H](CO)[C@H]([C@@]23OC[C@H]4OC(C)(C)OC4[C@@H]2OC(C)(C)O3)O1 (some centres undefined)"
  RESULT: "> 100 µM (inactive)"
- MOLECULE: "CC(=O)OCC1OC(SC2=NC(=O)CS2)C(OC(C)=O)C(OC(C)=O)C1OC(C)=O (centres undefined)"
  RESULT: "> 100 µM (inactive)"
- MOLECULE: "CCc1nc2ccc(C(F)(F)F)cc2[nH]c1=O"
  RESULT: "> 100 µM (inactive)"
- MOLECULE: "COc1ccc2c(c1OC)C1=C(C2=O)c2cc3c(cc2CCN1)OCO3"
  RESULT: "42.7 µM (inactive)"
- MOLECULE: "CC(O[Si](C)(C)C)C1C=CC(C)n2c(=O)n(-c3ccccc3)c(=O)n21 (centres undefined)"
  RESULT: "> 100 µM (inactive)"
- MOLECULE: "COC(=O)[C@@H]1[C@H]2CC[C@]3(C)[C@@H](OC(C)=O)CC[C@H]3[C@@H]2CC[C@H]1C1(C)SCCS1"
  RESULT: "34.7 µM (inactive)"
- MOLECULE: "CN(CCCCCl)P(=O)(OCC1=CC(=O)c2ccccc2C1=O)OC[C@H]1O[C@@H](n2cc(F)c(=O)[nH]c2=O)C[C@@H]1O (some centres undefined)"
  RESULT: "4.11 µM (inactive)"
- MOLECULE: "C1=Nc2sc3c(c2C2=NCCN12)CCCC3"
  RESULT: "20.7 µM (inactive)"
- MOLECULE: "COc1ccc(C2SC(=N)Nc3c2c(C)nn3C(=O)c2ccc(Cl)cc2)cc1 (centres undefined)"
  RESULT: "> 10 µM (inactive)"
